Target: HaloTag-ING2 PHD (mouse Ing2 200-280)
Assay: peptide microarray binding signal (635 nm), min-max normalized on array (fraction of array maximum); higher = stronger binding
Conditions: peptide region: Unmod H2B variant; binder concentration: 10 nM
Listed here: items and their measured peptide microarray binding signal.

| binder | peptide microarray binding signal |
| --- | --- |
| YNKRSTITSREIQ [Unmod H2B variant Y N K R S T I T S R E I Q] | 0.0181 |
| PEVSSKGATISKK [Unmod H2B variant P E V S S K G A T I S K K] | 0.0031 |
| VHPDTGISSKAMG [Unmod H2B variant V H P D T G I S S K A M G] | 0.0154 |
| DIFERIAGEASRL [Unmod H2B variant D I F E R I A G E A S R L] | 0.013 |
| APKKGSKKAITKA [Unmod H2B variant A P K K G S K K A I T K A] | 0.00239 |
| APKKGSKKAVTKA [Unmod H2B variant A P K K G S K K A V T K A] | 0.00185 |
| NSFVTDIFERIAS [Unmod H2B variant N S F V T D I F E R I A S] | 0.00483 |
| GISSKAMGIMNSF [Unmod H2B variant G I S S K A M G I M N S F] | 0.00913 |
